Please go through the items and note down their folding stability dG unfold.
- ASSAY PROCEDURE: folding stability dG unfold from chymotrypsin proteolysis; higher = more stable
I only need the number, in kcal/mol, no unit after it.

What folding stability dG unfold value was documented for this sequence, SAGGSAGGSAGGSSEPVVILVPVLPDAEEAVVDIGGHPALVKRFPDSPLAAITVPKELLSAGGSAGGSAGGS [r4_430_TrMRF] ?
-0.581

Also SAGSSTTLTFPVDTKIPDEKGNPLSSSTVTVTVNPSPGKVTATLTDPATGTVTTVEFGSLEKVEAFLSSSAG [r14_508_JUSTAS] , if possible.
-0.218

Also SAGPIIIRVKYPDGRQIDINPENPWQIQIWDPGGKKETYPFDSNEDAKDKVVDWLGEEHGWPIKDVEIVSAG [r5_119_TrROS] , if possible.
0.35

Also SAGGSAGGSAGIRLDSLEEALKYIRKNFPPGRTVEIRVYDGDKPVEITVQVDENGDIKIVSAGGSAGGSAGG [r17_69_TrROS] , if possible.
3.23

###

- ASSAY PROCEDURE: folding stability dG unfold (combined trypsin and chymotrypsin); higher = more stable
The threshold is inclusive: folding stability dG unfold of exactly 1 kcal/mol counts as Met; values below receive Not met.

Check the entry SAGGVKEIEIPNGMRITDVDPPDGYWKIKIENPDNGKEVERPIPPGDKLKIPPNAPVTITEIEPYPPSAGGS [r16_123_TrROS] : does folding stability dG unfold equal or exceed 1 kcal/mol?
Not met

Also SAGGSAGGSAGLNVGDVVVEVEAGTEYEFLIPNPAKLVKVKVVPDPTTNELKVEEAKVYDLKSAGGSAGGSA [r18_222_TrMRF] , if possible.
Not met

Also SAGELAEKLAEELRKLFPNAEVEVEVVEVKEDYVVVKIRLRVVDEETGEEKTVEVELTLVLKPGEILPSAGG [r19_8_TrROS_Hall] , if possible.
Met

Also SAMVTYDPEKGVFEAEIEVGGETLRVTVVRDPETGEVVAVVERPGSGEPVVLPLPFKSLSDVIRYAEEHSAG [r14_803_TrMRF] , if possible.
Met

Also SAGSVPQLIEDKLQEGSPNSSVEVKPVDTLGGTTVLEVKIERIDTSSGNGKLTSEDKIIEVPAGEELGSAGG [r19_8_JUSTAS] , if possible.
Not met

Also SAGEKPEKPPEVTITITSVKVERLPDGTVVVEVEAEIEVDGVTLTVRARFVYRDGKLFLEVEVRLEPLPSAG [r5_267_TrROS_Hall] , if possible.
Met

Also SAGNAKEIAKKIKIRIREFFAERFGFPDVEIDSVTIKDVDPKNGRVRVNITWWWPNGRPWKHEIEIPVDSAG [r5_20_TrROS] , if possible.
Met

Also SAGGMIRRITIYITDPGPSAPATTTTITVDVPPDRPDVPDEEVAQRVAESIAPKTGATATVEKIEEVSAGGS [r8_101_JUSTAS] , if possible.
Not met

Also SAGGSAGGSAKPKPVETVEVTVTGKDGKKYKVTVVYDEKTGKLYVKYNGKIYKVDSLEEALKSAGGSAGGSA [r18_67_TrROS_Hall] , if possible.
Met

Also SAGGSAPAKVEPLRVKIEFTPPNGEKHTFPMEIHRVHDNAIEIQDGGQPIRIPPNLDNIQITDIELSAGGSA [r15_510_TrROS] , if possible.
Not met

Also SAGGSMIITRDPATGLVTVYKNGKKVKTIEVPPGNPVGVSLSYNPSPNTYTVTLTTPESPVKISNLSAGGSA [r2_399_JUSTAS] , if possible.
Met

Also SAGGAMPVELVETLEEIPGKGIVLRKFRDPLSDKWFLATVPVETLPNGEKKYLIELNIDGSGMTLELGSAGG [r13_993_JUSTAS] , if possible.
Not met

Also SAGGSAGGSAGGSAKITIEYNPETNTLTVTITLENGEKVEITVPPNATLEEIEELAKKASAGGSAGGSAGGS [r4_205_TrROS_Hall] , if possible.
Met

Also SAGGSAGGSAGMKVAVLTIPENGKPVLVVELPDGGALAFDPDTDAVFLLDDDKIYYLGPASAGGSAGGSAGG [r17_476_TrMRF] , if possible.
Met

Also SAGGSAGGSAGGMIKTEDGYEVEIKIEVEEIPLPEGMSEEEKEKLKKIRIIRIEIKVTKKSAGGSAGGSAGG [r7_324_TrROS_Hall] , if possible.
Met

Also SAGGSAKLTAEEIKKLPPNARIYFDKETGRVFIEVDGKLVVIEIDKETKEVKVVKVFPSKEALEKASAGGSA [r15_6_TrROS_Hall] , if possible.
Met

Also SAGTVSSSFDPATGTLTITRTTSPDETVDLTLNVEVPETPATVAKVDSGGPVEGDEPVTITVELTDLKPSAG [r5_737_JUSTAS] , if possible.
Not met

Also SAGGGEYYAIVRIEVKDPESEETSELELVIPVEGLSEEEALEIARAIAETFPKENVKAEVEIVPRELSAGGS [r16_774_TrMRF] , if possible.
Not met

Also SAGGSAGGSAGGGLYNVVVTGKGEERVLPAKSPDDVKEALEEAGLEIKSIHPETGIVEAGSAGGSAGGSAGG [r7_726_TrMRF] , if possible.
Not met

Also WIRIPNGQPFRIKAKMKNPDGDDRKHTGKIPMEELGQKNGRPITPEDILDEIKEEARDHGAPVEDVEIEYYS [r1_338_TrROS] , if possible.
Not met

Also SAGGSAGGSPPNKEVYIRIKIEYDGPNGQPIMEFWIPADEITPSFIEELMNRGGIKVDIELIPSAGGSAGGS [r12_398_TrROS] , if possible.
Met

Also SAGGGLEEFARRLAEELARLLGGPNVPFELEGVVVFGFRLRPDGTPEPTTSRPVVVRVRFETPGGDPSAGGS [r16_156_TrMRF] , if possible.
Met

Also SAGGSAGGSAGSPSEVKYSEEVLEEPLPGGVPYRLVVRTRTVLEGDKVVEEEEETELVLLSAGGSAGGSAGG [r11_35_JUSTAS] , if possible.
Not met

Also SAKLPEGAVVVIEDIEEKEVNGKKYKTIKISVYDKKNKGKLIAETEIVVENGKIVEKKVKVKKVSKEELSAG [r14_651_TrROS_Hall] , if possible.
Met

Also SAGGSAGGSAGGSWRVRIDLPNGKSRTIPIKPGEEVDLNEIADELSDKYNIKSISIEEPSAGGSAGGSAGGS [r4_116_TrROS] , if possible.
Not met

Also SAGGSAGGSAGGSDDFVLRYRRRVRRKPKEVRLLPNGELVTGWEEEVSTFPVLTHPDDDSAGGSAGGSAGGS [r10_524_TrMRF] , if possible.
Not met

Also SAGTIKELLEKLPGFSVEVDPDDGTVWVMFRMPDHYVMIEIPIDKEDGNIKGIRIHRHDPNGEPKPIPLSAG [r5_367_TrROS] , if possible.
Met
